Molecular target: Ferriprotoporphyrin IX
Experiment: Binding affinity to haematin assessed as inhibition of NP40-mediated beta-haematin formation after 4 hrs by pyridine-ferrochrome method
pIC50: −log10 of the molar value.
Quick reference for pIC50 among some compounds
test-readout: pIC50

> print(dat)
                                   compound  value.modifier  recorded.value
1  CC(C)N(c1nc(Cl)nc(Nc2ccc(Nc3ccnc4cc(Cl)ccc34)cc2)n1)C(C)C               <            3.30
2  Clc1ccc2c(Nc3ccc(Nc4nc(Cl)nc(N5CCNCC5)n4)cc3)ccnc2c1               =            4.63
3  CCN(CC)CCCC(C)Nc1ccnc2cc(Cl)ccc12 (configuration not stated)               =            4.57
4  CN(c1ccccc1)c1nc(Cl)nc(Nc2ccc(Nc3ccnc4cc(Cl)ccc34)cc2)n1               =            4.63
5  CN(C)c1nc(Cl)nc(Nc2ccc(Nc3ccnc4cc(Cl)ccc34)cc2)n1               =            4.53
6  CCN(c1ccccc1)c1nc(Cl)nc(Nc2ccc(Nc3ccnc4cc(Cl)ccc34)cc2)n1               =            4.53
7  Clc1ccc2c(Nc3ccc(Nc4nc(Cl)nc(NCc5ccccc5)n4)cc3)ccnc2c1               =            4.66
